- measured_target: Endothelial lipase (Homo sapiens)
- Sequence (Q9Y5X9 whole entry): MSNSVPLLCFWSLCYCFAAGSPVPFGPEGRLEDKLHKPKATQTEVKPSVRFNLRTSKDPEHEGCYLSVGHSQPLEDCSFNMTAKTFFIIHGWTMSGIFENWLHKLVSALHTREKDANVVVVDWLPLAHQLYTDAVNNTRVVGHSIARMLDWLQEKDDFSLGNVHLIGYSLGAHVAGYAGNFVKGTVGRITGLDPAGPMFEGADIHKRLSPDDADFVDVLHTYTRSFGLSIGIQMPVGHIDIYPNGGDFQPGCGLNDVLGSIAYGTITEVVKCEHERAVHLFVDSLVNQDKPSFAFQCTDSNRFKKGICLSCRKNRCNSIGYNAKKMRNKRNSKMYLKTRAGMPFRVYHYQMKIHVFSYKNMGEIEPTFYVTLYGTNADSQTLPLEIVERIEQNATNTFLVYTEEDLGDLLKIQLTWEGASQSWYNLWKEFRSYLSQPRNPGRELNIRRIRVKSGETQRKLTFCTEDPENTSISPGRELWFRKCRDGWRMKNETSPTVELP
- procedure_summary: Inhibition Assay: After the present compound dissolved in DMSO was added to become 0.5% DMSO to the reaction buffer consisting of 20 mM tris hydrochloric acid (pH7.4), bovine serum albumin (0.5%), calcium chloride (4 mM), sodium chloride (150 mM) and human HDL (2 mg/ml), the EL enzyme was added (total volume was 20 μl). After 4-hour reaction at 37 C., non-esterified fatty acid (NEFA) generated from HDL by EL was measured with a commercially available assay kit and the amount of NEFA was used as an index of enzyme activity. Considering the enzyme activity without the inhibitor as a control value, the inhibition rate of each concentration of the present compound was calculated, and 50% inhibitory concentration (IC50 value) was calculated from an inhibition curve.
experimental_endpoint: pIC50
Reminder that pIC50 means the negative base-10 logarithm of the concentration expressed in mol/L.

# pIC50 lookup, item N#CC1(NC(=O)Cc2nnc(Cc3nc4ccc(-c5ccc(Cl)s5)c(F)c4s3)o2)CC1
7.85
